- experiment_description: Half life in Kun Ming mouse plasma at 40 mg/kg, po by LC-MS/MS analysis
- Assay type: ADME, organism-based
quantity_kind: half-life (h)
Numbers only, in h.

Quickly give me recorded half-life for CN(CCOc1cc(COc2ccccc2)on1)CC1CC1.Cl
2.64

###

- experiment_description: Mean residence time in Kun Ming mouse plasma at 40 mg/kg, po by LC-MS/MS analysis
- Assay type: ADME, organism-based
quantity_kind: MRT (h)
Numbers only, in h.

Quickly give me recorded MRT for CN(CCOc1cc(COc2ccccc2)on1)CC1CC1.Cl
1.39

###

- tested_target: Sigma non-opioid intracellular receptor 1 (Rattus norvegicus) (UniProt Q9R0C9)
- Sequence (Q9R0C9 whole entry): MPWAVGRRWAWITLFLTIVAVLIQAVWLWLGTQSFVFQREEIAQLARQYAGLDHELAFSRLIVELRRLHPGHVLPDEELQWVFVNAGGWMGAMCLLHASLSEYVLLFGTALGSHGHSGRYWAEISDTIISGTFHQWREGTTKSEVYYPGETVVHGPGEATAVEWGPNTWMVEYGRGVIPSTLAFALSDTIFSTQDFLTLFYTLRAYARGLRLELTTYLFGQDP
- experiment_description: Displacement of [3H]-pentazocine from rat brain sigma1 receptor at 10 uM by PDSP assay
Assign inhibition to each entry below.

Quickly give me recorded inhibition for O=C(Oc1ccccc1)c1cc(OC[C@@H]2CCCN2)no1
< 50%

Working through the 6 molecules below one at a time, give inhibition for each.
1. CN(C)CCOc1cc(COc2ccccc2)on1
2. CN(CCOc1cc(COc2ccccc2)on1)C1CCCCC1
3. CN(CCOc1cc(COc2ccccc2)on1)CC1CC1.Cl
4. Cl.c1ccc(OCc2cc(N3CCNCC3)no2)cc1
5. Fc1ccccc1OCc1cc(OC[C@@H]2CCCN2)no1
6. c1ccc(OCc2cc(N3CCOCC3)no2)cc1

1. < 50%
2. > 50%
3. > 50%
4. > 50%
5. > 50%
6. < 50%

Working through the 2 molecules below one at a time, give inhibition for each.
1. Clc1ccccc1OCc1cc(OC[C@@H]2CCCN2)no1
2. c1ccc(OCc2cc(N3CCCCC3)no2)cc1

> 50%
< 50%

###

- tested_target: Sigma intracellular receptor 2 (Rattus norvegicus, UniProt Q5U3Y7)
- Sequence (Q5U3Y7 whole entry): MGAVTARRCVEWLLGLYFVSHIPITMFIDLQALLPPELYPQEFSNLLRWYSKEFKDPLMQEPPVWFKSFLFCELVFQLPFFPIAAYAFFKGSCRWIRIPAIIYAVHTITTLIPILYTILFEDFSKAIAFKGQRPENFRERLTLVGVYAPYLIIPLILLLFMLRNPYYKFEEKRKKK
- experiment_description: Displacement of [3H]DTG from rat brain sigma2 receptor by PDSP assay
Assign Ki to each entry below.
Give bare numbers, in nM.

Quickly give me recorded Ki for Clc1cccc(OCc2cc(N3CCNCC3)no2)c1
687

Moving on to the next molecule.
Quickly give me recorded Ki for CN(CCOc1cc(COc2cccc(F)c2)on1)CC1CC1
314

###

- tested_target: Sigma intracellular receptor 2 (Rattus norvegicus)
- experiment_description: Displacement of [3H]DTG from rat brain sigma2 receptor by PDSP assay
Assign pKi to each entry below.
Give bare numbers, as −log10 of the molar value.

Quickly give me recorded pKi for Brc1ccc(OCc2cc(OC[C@@H]3CCCN3)no2)cc1
6.86

Quickly give me recorded pKi for CN1CCN(c2cc(COc3ccccc3)on2)CC1
5.66

Quickly give me recorded pKi for Fc1ccccc1OCc1cc(OC[C@@H]2CCCN2)no1
6.40

Working through the 5 compounds below one at a time, give pKi for each.
1. CN1CCC[C@H]1COc1cc(COc2cccc(F)c2)on1
2. CN(CCOc1cc(COc2ccccc2)on1)C1CCC1
3. CN1CCC(COc2cc(COc3ccccc3)on2)CC1
4. FC(F)(F)c1cccc(OCc2cc(OC[C@@H]3CCCN3)no2)c1
5. Cl.c1ccc(OCc2cc(N3CCNCC3)no2)cc1

6.16
6.51
6.67
7.06
6.66

Working through the 3 compounds below one at a time, give pKi for each.
1. COc1ccc(OCc2cc(OC[C@@H]3CCCN3)no2)cc1
2. CCNCCOc1cc(COc2ccccc2)on1
3. c1ccc(OCc2cc(OC[C@H]3CCCN3)no2)cc1

[6.17, 6.01, 6.29]

Working through the 7 compounds below one at a time, give pKi for each.
1. CN1CCC[C@@H]1COc1cc(COc2ccccc2)on1
2. CN1CCC[C@H]1COc1cc(COc2ccccc2)on1.Cl
3. CCN(C)CCOc1cc(COc2ccccc2)on1
4. Cl.Fc1cccc(OCc2cc(OC[C@@H]3CCCN3)no2)c1
5. c1ccc(OCc2cc(OCC3CCNCC3)no2)cc1
6. CN(CCOc1cc(COc2cccc(Cl)c2)on1)C1CCCCC1
7. Brc1cccc(OCc2cc(OC[C@@H]3CCCN3)no2)c1

[6.39, 6.18, 6.09, 6.56, 6.55, 7.82, 7.07]

Working through the 2 compounds below one at a time, give pKi for each.
1. c1ccc2cc(OCc3cc(OC[C@@H]4CCCN4)no3)ccc2c1
2. Clc1ccc(OCc2cc(OC[C@@H]3CCCN3)no2)cc1

[6.82, 6.86]
